System: SF-295
assayMethodText: NCI tumour cell line growth inhibition, 48 h
Activity calls are given as the source filed them. Cut-off read from the data, not from the text of the source: active = GI50 up to about 1.1 µM and inactive = higher.
quantityName: GI50

Consider the worked cases shown below.
O=C(O)c1ccc2[nH]c(=O)oc2c1
> 100 µM (inactive)
N#CC12CC3(CCC1CCC1(C2)OCCO1)OCCO3 (configuration not stated)
> 100 µM (inactive)
N#CCCN(CCC#N)c1ccc(/C=C2\N=C(c3ccccc3)N(NC(N)=S)C2=O)cc1
> 100 µM (inactive)
N#CC(C#N)=Cc1ccc(CP(=O)(O)O)cc1
> 100 µM (inactive)
CC(=O)OCC1OC(OC(C)=O)C(NC#N)C(OC(C)=O)C1OC(C)=O (configuration not stated)
80.4 µM (inactive)
CCOC(=O)/C=C/[C@H](O)[C@@H](O)/C=C/C(=O)OCC
31.7 µM (inactive)

Lab note: `CCOC(=O)C1(C(=O)OCC)CSC1` gave GI50 of > 100 µM (inactive)

----------
Test system: SK-MEL-5
assayMethodText: NCI tumour cell line growth inhibition, 48 h
Activity calls are given as the source filed them. No stated cut-off is given here; in the data, active = GI50 up to about 1.1 µM and inactive = higher.
Listing of recorded GI50 by entry.

CCOc1ccccc1Nc1ccc(N)cc1S(=O)(=O)O
> 100 µM (inactive)
Cn1cnc(N2CCCC2)c(C#N)c1=O
> 100 µM (inactive)

Next compound, please.
Lab note: `COC1=CC(=O)C(O)=C(C[C@@]2(C)[C@@H]3CCC[C@H](COC(=O)CCCCCNC(=O)OC(C)(C)C)[C@@]3(C)CC[C@@H]2C)C1=O` gave GI50 of 3.77 µM (inactive)

----------
System: U-251
assayMethodText: NCI tumour cell line growth inhibition, 48 h
Active and inactive are the calls of the source. No stated cut-off is given here; in the data, active = GI50 up to about 1.1 µM and inactive = higher.
The categories you may choose from are true (1) = active, false (0) = inactive

Illustrative cases are given below, each with its answer.
O=C(O)CCC(=O)OC1N=C(c2ccccc2Cl)c2cc([N+](=O)[O-])ccc2NC1=O (configuration not stated)
false (0)
O=C(CC(C(=O)c1ccsc1)c1ccccc1)c1cccs1 (configuration not stated)
false (0)

Req: Hi, do you know how CC(C)=CCC/C(C)=C/CC/C(C)=C/CC/C=C(\C)CC/C=C(\C)CCC1SC1(C)C (configuration not stated) came out in this test?
Resp: false (0)

Req: Hi, do you know how `Cc1cccc(C)c1NC(=O)C(=O)CC(=O)c1sc(Nc2c(C)cccc2C)nc1C` came out in this test?
Resp: false (0)

Req: Hi, do you know how `CCOC(=O)/C=C/[C@H](O)[C@@H](O)/C=C/C(=O)OCC` came out in this test?
Resp: false (0)

Req: Hi, do you know how `NC(=O)Nc1c([N+](=O)[O-])cc(C(F)(F)F)cc1[N+](=O)[O-]` came out in this test?
Resp: false (0)

Req: Hi, do you know how C=CCN1CCC(O)(c2cc(C(=O)OCC)[nH]c2-c2cc(C)no2)C1 (configuration not stated) came out in this test?
Resp: false (0)

Req: Hi, do you know how `Nc1ccccc1N` came out in this test?
Resp: false (0)

Req: Hi, do you know how `Cc1c2ccncc2c(C)c2c1[nH]c1ccc(OCC(F)(F)F)cc12` came out in this test?
Resp: false (0)

----------
Tested on: HOP-62
assayMethodText: NCI tumour cell line growth inhibition, 48 h
The source made the active and inactive calls. No stated cut-off is given here; in the data, active = GI50 up to about 1.1 µM and inactive = higher.
quantityName: GI50

Lab note: `O=C(NCCOCCO)c1ccc(O)cc1` gave GI50 of > 100 µM (inactive)

Lab note: C=CCNC1=C2C[C@@H](C)C[C@@H](OC)C(OC(=O)CCCN(C)C)[C@H](C)/C=C(\C)[C@@H](OC(N)=O)[C@H](OC)/C=C\C=C(/C)C(=O)NC(=CC1=O)C2=O (stereo not given in full) gave GI50 of 9.95 µM (inactive)

Lab note: `CC(=O)/C(=C\c1ccccc1)C(=O)Nc1ccccc1` gave GI50 of > 100 µM (inactive)

Lab note: CC12CCC(C/C1=N\NC(N)=O)C2(C)C (stereo not given) gave GI50 of > 100 µM (inactive)
